Listed below: ELISA Absorbance (405 nm-570 nm) values for each entry.
Target: T1, GARS-His (Sino Biological) (human, UniProt P41250 37-739, limits assumed)
T1 construct: Bought; also called GARS1; glycyl-tRNA synthetase; not shown: His tag of the bought protein
T1 sequence: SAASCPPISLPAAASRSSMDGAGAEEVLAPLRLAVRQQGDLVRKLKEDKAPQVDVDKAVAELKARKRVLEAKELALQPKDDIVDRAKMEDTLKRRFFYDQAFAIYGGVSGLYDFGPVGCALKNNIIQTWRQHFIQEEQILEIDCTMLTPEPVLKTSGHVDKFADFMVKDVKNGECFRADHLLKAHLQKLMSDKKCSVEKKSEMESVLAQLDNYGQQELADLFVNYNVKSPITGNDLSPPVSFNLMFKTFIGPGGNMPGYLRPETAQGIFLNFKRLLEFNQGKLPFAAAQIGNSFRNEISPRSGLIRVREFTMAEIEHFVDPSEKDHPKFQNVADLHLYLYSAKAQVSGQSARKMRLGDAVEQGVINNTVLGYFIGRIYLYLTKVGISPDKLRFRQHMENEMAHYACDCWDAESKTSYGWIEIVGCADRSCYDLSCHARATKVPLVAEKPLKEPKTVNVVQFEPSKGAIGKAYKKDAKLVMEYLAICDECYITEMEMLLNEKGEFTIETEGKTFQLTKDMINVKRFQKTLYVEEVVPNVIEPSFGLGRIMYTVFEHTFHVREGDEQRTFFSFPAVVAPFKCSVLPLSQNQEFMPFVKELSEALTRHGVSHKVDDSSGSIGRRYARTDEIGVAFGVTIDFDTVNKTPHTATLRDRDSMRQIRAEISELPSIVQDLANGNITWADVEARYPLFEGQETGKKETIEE
Test: ELISA on coated GARS-His, 150 ng IgG1; None 0.099
Provide a numeric answer; units are not to be included.

Below: 5 binders and their reported ELISA Absorbance (405 nm-570 nm).
Binder | Endpoint result
TH9-0022 (antibody, human IgG1, kappa, L234A L235A, V domains shown, also called TH9-022; negative control) VH: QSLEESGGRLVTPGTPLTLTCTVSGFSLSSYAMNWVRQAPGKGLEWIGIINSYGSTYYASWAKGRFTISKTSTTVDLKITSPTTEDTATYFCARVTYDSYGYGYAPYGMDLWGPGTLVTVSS VL: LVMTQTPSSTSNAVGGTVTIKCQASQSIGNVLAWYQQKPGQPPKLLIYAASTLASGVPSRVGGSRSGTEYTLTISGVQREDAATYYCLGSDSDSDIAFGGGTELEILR | 0.098
HW-70 chimeric rabbit-human IgG1 LA/LA/PG (antibody, V domains shown, Fc-silenced (L234A/L235A/P329G) IgG1, lambda; Alexa Fluor 647-labeled in single-step flow cytometry; Cluster C-1) VH: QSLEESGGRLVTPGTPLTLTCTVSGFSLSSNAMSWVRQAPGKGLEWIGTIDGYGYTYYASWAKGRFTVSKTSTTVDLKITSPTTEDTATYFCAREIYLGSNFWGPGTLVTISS VL: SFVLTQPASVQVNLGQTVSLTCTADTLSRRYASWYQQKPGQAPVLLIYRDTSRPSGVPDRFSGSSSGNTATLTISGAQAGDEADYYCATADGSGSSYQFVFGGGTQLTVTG | 0.087
HW-16 chimeric rabbit-human IgG1 LA/LA/PG (antibody, V domains shown, Fc-silenced (L234A/L235A/P329G) IgG1, kappa; Alexa Fluor 647-labeled in single-step flow cytometry; Cluster C-45) VH: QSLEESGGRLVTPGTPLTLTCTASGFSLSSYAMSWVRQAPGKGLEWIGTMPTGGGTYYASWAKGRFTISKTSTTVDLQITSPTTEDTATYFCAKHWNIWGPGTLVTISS VL: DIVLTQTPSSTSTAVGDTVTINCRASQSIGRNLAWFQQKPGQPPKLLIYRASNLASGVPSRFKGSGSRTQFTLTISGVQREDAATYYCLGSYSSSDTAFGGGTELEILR | 0.718
HW-81 chimeric rabbit-human IgG1 LA/LA/PG (antibody, V domains shown, Fc-silenced (L234A/L235A/P329G) IgG1, lambda; Alexa Fluor 647-labeled in single-step flow cytometry; Cluster C-45) VH: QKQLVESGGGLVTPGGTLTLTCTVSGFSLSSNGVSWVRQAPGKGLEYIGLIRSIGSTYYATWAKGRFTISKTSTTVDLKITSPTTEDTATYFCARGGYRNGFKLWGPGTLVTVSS VL: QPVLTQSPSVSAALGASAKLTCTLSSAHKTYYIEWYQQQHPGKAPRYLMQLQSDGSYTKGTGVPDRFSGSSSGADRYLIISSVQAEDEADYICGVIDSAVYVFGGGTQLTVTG | 0.641
HW-101 chimeric rabbit-human IgG1 LA/LA/PG (antibody, V domains shown, Fc-silenced (L234A/L235A/P329G) IgG1, lambda; Alexa Fluor 647-labeled in single-step flow cytometry; Cluster C-97) VH: QEQLVESGGRLVTPGTPLTLTCKASGFSLGKYDMSWVRQAPGKGLEWIGTIYAGSGSTWYASWAKGRFTISKTSTTVDLKMTSLTTEDTATYFCARDFLGVNSIWGPGTLVTISS VL: SFVLTQPASVQVNLGQTVSLTCTADTLSRSYASWYQQKPDQAPVLLIHRDTSRPSGVPDRFSGSNSGNTATLTISGAQAGDEADYYCATSDGSGSNFHFVFGGGTQLTVTG | 0.093

**Q:** Please give the measured ELISA Absorbance (405 nm-570 nm) for this binder: HW-42 chimeric rabbit-human IgG1 LA/LA/PG (antibody, V domains shown, Fc-silenced (L234A/L235A/P329G) IgG1, lambda; Alexa Fluor 647-labeled in single-step flow cytometry; Cluster C-1) VH: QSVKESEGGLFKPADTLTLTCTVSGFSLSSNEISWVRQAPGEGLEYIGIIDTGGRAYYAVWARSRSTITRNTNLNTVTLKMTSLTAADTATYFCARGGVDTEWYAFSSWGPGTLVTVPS VL: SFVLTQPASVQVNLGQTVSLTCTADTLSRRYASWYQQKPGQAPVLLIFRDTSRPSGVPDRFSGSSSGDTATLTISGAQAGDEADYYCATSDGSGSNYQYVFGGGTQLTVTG
**A:** 0.099

**Q:** Please give the measured ELISA Absorbance (405 nm-570 nm) for this binder: HW-8 chimeric rabbit-human IgG1 LA/LA/PG (antibody, V domains shown, Fc-silenced (L234A/L235A/P329G) IgG1, kappa; Alexa Fluor 647-labeled in single-step flow cytometry; Cluster C-45) VH: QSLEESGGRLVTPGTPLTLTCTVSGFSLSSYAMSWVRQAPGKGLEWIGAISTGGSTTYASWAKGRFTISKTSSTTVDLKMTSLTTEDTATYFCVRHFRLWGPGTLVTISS VL: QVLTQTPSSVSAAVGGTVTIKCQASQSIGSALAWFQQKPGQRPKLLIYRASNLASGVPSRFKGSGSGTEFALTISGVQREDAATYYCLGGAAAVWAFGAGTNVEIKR
**A:** 0.081

**Q:** Please give the measured ELISA Absorbance (405 nm-570 nm) for this binder: HW-1 chimeric rabbit-human IgG1 LA/LA/PG (antibody, V domains shown, Fc-silenced (L234A/L235A/P329G) IgG1, lambda; Alexa Fluor 647-labeled in single-step flow cytometry; Prototype of cluster C-1) VH: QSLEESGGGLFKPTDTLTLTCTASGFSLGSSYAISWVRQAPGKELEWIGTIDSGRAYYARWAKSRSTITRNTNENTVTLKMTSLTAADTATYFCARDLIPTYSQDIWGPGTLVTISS VL: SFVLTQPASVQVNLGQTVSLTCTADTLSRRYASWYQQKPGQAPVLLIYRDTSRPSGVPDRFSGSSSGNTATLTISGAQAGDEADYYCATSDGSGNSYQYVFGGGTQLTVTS
**A:** 0.091
